Reference source for all entries: paper PMC5647227

Assay read-out IC50; system under study: DOP receptor (Mus musculus).
Sequence (P32300 whole entry): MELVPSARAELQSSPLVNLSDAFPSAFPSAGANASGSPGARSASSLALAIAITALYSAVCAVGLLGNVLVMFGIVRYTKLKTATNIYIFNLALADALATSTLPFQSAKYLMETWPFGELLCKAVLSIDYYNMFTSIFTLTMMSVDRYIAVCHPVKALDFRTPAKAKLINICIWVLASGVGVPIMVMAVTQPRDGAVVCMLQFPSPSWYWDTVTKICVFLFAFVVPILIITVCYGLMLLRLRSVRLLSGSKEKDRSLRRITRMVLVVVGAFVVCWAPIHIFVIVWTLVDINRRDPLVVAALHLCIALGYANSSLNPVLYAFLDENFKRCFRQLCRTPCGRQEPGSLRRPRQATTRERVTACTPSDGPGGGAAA
Give the number; nM is assumed, so skip it.

Worked cases, answers included:
- Cc1cc(O)cc(C)c1C[C@H](N)C(=O)N[C@H](CCCNC(=N)N)C(=O)N[C@H]1Cc2ccccc2CN(CCC(=O)N(Cc2cc(C(F)(F)F)cc(C(F)(F)F)c2)C2CC2)C1=O: 16
- Cc1cc(O)cc(C)c1C[C@H](N)C(=O)N[C@H](CCCNC(=N)N)C(=O)N[C@H]1Cc2ccccc2CN(CCC(=O)N(Cc2ccccc2)C2CC2)C1=O: 6.6
- COc1ccccc1CN(C)C(=O)CN1Cc2ccccc2C[C@H](NC(=O)[C@@H](CCCNC(=N)N)NC(=O)[C@@H](N)Cc2c(C)cc(O)cc2C)C1=O: 2.4
- Cc1cc(O)cc(C)c1C[C@H](N)C(=O)N[C@H](CCCNC(=N)N)C(=O)N[C@H]1Cc2ccccc2CN(CCC(=O)N2Cc3ccccc3C2)C1=O: 2.1

# next compound below
Param readout = IC50; param system = DOP receptor (Mus musculus); param query = `Cc1cc(O)cc(C)c1C[C@H](N)C(=O)N[C@H](CCCNC(=N)N)C(=O)N[C@H]1Cc2ccccc2CN(CC(=O)N(C)Cc2ccc3ccccc3c2)C1=O` ; response: value
10

---

molecular target: MOP receptor (Cavia porcellus, UniProt A0ACM8Q262); assay: Guinea pig ileum; assay type: biochemical; conditions: read-out: GPI IC50; representative of MOP receptor activation
Sequence (A0ACM8Q262 1-400): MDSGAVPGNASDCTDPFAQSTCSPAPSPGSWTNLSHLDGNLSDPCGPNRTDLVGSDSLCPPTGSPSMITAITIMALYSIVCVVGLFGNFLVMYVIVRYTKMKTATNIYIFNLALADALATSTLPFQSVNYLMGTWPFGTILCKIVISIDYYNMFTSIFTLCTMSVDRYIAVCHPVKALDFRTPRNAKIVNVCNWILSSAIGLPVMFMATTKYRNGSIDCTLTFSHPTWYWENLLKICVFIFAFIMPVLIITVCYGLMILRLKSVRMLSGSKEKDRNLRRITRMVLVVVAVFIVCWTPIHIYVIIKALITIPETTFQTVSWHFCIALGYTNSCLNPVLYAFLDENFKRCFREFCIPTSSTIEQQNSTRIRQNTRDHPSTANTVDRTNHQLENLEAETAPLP
molecules and their reported pIC50
To interpret pIC50, take it as minus log10 of a concentration measured in moles per litre.

Some solved entries appear below for comparison.
* Cc1cc(O)cc(C)c1C[C@H](N)C(=O)N[C@H](CCCNC(=N)N)C(=O)N[C@H]1Cc2ccccc2CN(CC(=O)N(C)Cc2ccc3ccccc3c2)C1=O | 8.52
* Cc1cc(O)cc(C)c1C[C@H](N)C(=O)N[C@H](CCCNC(=N)N)C(=O)N[C@H]1Cc2ccccc2CN(CC(=O)N(Cc2ccccc2)C2CC2)C1=O | 8.00

Report pIC50 for `Cc1cc(O)cc(C)c1C[C@H](N)C(=O)N[C@H](CCCNC(=N)N)C(=O)N[C@H]1Cc2ccccc2CN(CCC(=O)N2Cc3ccccc3C2)C1=O` please.
8.30

---

Reported Kb values are given for each entry in this list.
target: hNK1 receptors (Homo sapiens); experiment: Functional NK1 receptor assay; format: cell-based
Sequence (P25103 whole entry): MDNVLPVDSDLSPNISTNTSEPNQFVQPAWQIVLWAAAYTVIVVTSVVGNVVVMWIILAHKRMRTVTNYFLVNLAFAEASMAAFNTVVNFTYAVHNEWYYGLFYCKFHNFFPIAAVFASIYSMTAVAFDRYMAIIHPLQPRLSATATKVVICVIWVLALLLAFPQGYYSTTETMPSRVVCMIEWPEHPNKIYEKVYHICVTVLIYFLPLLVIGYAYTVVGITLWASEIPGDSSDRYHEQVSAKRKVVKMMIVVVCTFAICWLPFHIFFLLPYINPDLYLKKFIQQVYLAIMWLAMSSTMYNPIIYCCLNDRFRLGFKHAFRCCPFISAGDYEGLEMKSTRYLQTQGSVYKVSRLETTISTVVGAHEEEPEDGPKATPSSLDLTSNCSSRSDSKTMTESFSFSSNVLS
Respond with the bare value in µM.

Below are worked cases with known answers.
- Cc1cc(O)cc(C)c1C[C@H](N)C(=O)N[C@H](CCCNC(=N)N)C(=O)N[C@H]1Cc2ccccc2CN(CCC(=O)N(Cc2ccccc2)C2CC2)C1=O: 6.31
- Cc1cc(O)cc(C)c1C[C@H](N)C(=O)N[C@H](CCCNC(=N)N)C(=O)N[C@H]1Cc2ccccc2CN(CC(=O)N(C)Cc2ccc3ccccc3c2)C1=O: 3.63
- Cc1cc(O)cc(C)c1C[C@H](N)C(=O)N[C@H](CCCNC(=N)N)C(=O)N[C@H]1Cc2ccccc2CN(CCC(=O)N(C)Cc2ccc3ccccc3c2)C1=O: 0.0977
- Cc1cc(O)cc(C)c1C[C@H](N)C(=O)N[C@H](CCCNC(=N)N)C(=O)N[C@H]1Cc2ccccc2CN(CC(=O)N2Cc3ccccc3C2)C1=O: 692
- COc1ccccc1CN(C)C(=O)CN1Cc2ccccc2C[C@H](NC(=O)[C@@H](CCCNC(=N)N)NC(=O)[C@@H](N)Cc2c(C)cc(O)cc2C)C1=O: 14.5
- Cc1cc(O)cc(C)c1C[C@H](N)C(=O)N[C@H](CCCNC(=N)N)C(=O)N[C@H]1Cc2ccccc2CN(CCC(=O)N(Cc2cc(C(F)(F)F)cc(C(F)(F)F)c2)C2CC2)C1=O: 4.37

What does the data say about its Kb? Entry: `Cc1cc(O)cc(C)c1C[C@H](N)C(=O)N[C@H](CCCNC(=N)N)C(=O)N[C@H]1Cc2ccccc2CN(CC(=O)N(Cc2ccccc2)C2CC2)C1=O`
3.16
